- study-system: Cathepsin B (Homo sapiens)
pIC50: −log10 of the molar value.
metric-name: pIC50

NC(=S)N/N=C(\CCc1ccccc1)c1cc(C(F)(F)F)cc(C(F)(F)F)c1 = 5.52

a. Cc1ccc(/C(=N\NC(N)=S)c2cc(Cl)cc(Cl)c2)cc1
b. Cc1ccc(/C(=N\NC(N)=S)c2cc(C(F)(F)F)cc(C(F)(F)F)c2)cc1
c. Cc1ccc(/C(=N/NC(N)=S)c2cccc(C(F)(F)F)c2)cc1
**Query** Rank order required: pIC50, descending. Give the order by naming the labels one after another as requested.
**Result** c, a, b

---

- assay-comment: Inhibition of Trypanosoma brucei cathepsin B
metric-name: IC50 (µM)
Field: numeric (µM). Do not append units.

Below are worked cases with known answers.
NC(=S)N/N=C(/C=C/c1ccccc1)c1cccc(C(F)(F)F)c1 = 7
Cc1ccc(/C(=N\NC(N)=S)c2cc(C(F)(F)F)cc(C(F)(F)F)c2)cc1 = 15
NC(=S)N/N=C(/c1cc(C(F)(F)F)cc(C(F)(F)F)c1)c1cccs1 = 0.15
NC(=S)N/N=C(/c1cc(Cl)cc(Cl)c1)c1cccs1 = 0.45
Cc1ccc(/C(=N/NC(N)=S)c2cccc(C(F)(F)F)c2)cc1 = 0.21

Could you now look at the following compound, please?
compound `Cc1ccc(/C(=N\NC(N)=S)c2cc(Cl)cc(Cl)c2)cc1` , IC50 observed: 6

---

- assay-comment: Therapeutic index, ratio of EC50 for human Raji cells to EC50 for Trypanosoma brucei
- Type: cell-based
- measurement-conditions: Raji cells (versus Trypanosoma brucei), read-out: Ratio EC50
metric-name: selectivity ratio

Below are worked cases with known answers.
Cc1ccc(/C(=N\NC(N)=S)c2cc(C(F)(F)F)cc(C(F)(F)F)c2)cc1 = > 19
Cc1ccc(/C(=N\NC(N)=S)c2cc(Cl)cc(Cl)c2)cc1 = > 9
NC(=S)N/N=C(/CCc1ccccc1)c1cccc(F)c1 = > 4
NC(=S)N/N=C(\CCc1ccccc1)c1cc(Cl)cc(Cl)c1 = > 19

molecule `NC(=S)N/N=C(/c1cc(Cl)cc(Cl)c1)c1cccs1` , selectivity ratio observed: > 4

molecule `Cc1ccc(/C(=N/NC(N)=S)c2cccc(C(F)(F)F)c2)cc1` , selectivity ratio observed: > 17

molecule `NC(=S)N/N=C(/C=C/c1ccccc1)c1cccc(C(F)(F)F)c1` , selectivity ratio observed: > 10

molecule `NC(=S)N/N=C(/c1cc(C(F)(F)F)cc(C(F)(F)F)c1)c1cccs1` , selectivity ratio observed: > 4

molecule `NC(=S)N/N=C(\CCc1ccccc1)c1cc(C(F)(F)F)cc(C(F)(F)F)c1` , selectivity ratio observed: > 10

molecule `NC(=S)N/N=C(/CCc1ccccc1)c1cccc(Cl)c1` , selectivity ratio observed: > 6.7

---

- study-system: Procathepsin L (Homo sapiens)
- Sequence (P07711 whole entry): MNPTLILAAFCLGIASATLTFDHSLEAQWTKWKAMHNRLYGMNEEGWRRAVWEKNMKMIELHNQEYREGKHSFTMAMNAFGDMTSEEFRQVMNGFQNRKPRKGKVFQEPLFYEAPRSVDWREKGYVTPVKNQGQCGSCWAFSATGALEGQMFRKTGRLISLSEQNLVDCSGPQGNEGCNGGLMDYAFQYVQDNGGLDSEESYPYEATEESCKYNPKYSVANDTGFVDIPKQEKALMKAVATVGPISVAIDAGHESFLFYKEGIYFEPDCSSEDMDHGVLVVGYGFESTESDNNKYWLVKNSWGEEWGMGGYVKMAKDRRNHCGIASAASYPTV
metric-name: IC50 (nM)

Below are worked cases with known answers.
Cc1ccc(/C(=N/NC(N)=S)c2ccccc2)cc1 = 1020
NC(=S)N/N=C(\CCc1ccccc1)c1cc(Cl)cc(Cl)c1 = 39
Cc1ccc(/C(=N/NC(N)=S)c2cccc(C(F)(F)F)c2)cc1 = 9.4
NC(=S)N/N=C(/c1cc(Cl)cc(Cl)c1)c1cccs1 = 3.6
Cc1ccc(/C(=N/NC(N)=S)c2cccc(F)c2)cc1 = 44
NC(=S)N/N=C(/CCc1ccccc1)c1cccc(Cl)c1 = 21
NC(=S)N/N=C(/CCc1ccccc1)c1cccc(F)c1 = 118
NC(=S)N/N=C(/CCc1ccccc1)c1ccccc1 = 910

1. NC(=S)N/N=C(/C=C/c1ccccc1)c1cccc(C(F)(F)F)c1
2. NC(=S)N/N=C(/c1cc(C(F)(F)F)cc(C(F)(F)F)c1)c1cccs1
**Query** Consider 1 and 2 . Which of these has its IC50 at a higher number? Bench note: the answer is the label of the chosen record.
**Result** 1
(1: 81 nM, 2: 10.1 nM)
